- PROTOCOL: Mechanical properties of batches of Solid Form A
- Type: physicochemical
- COND: lots of Solid Form A; A2 and A9 unmilled, A3 and A6/A7 milled

- MOLECULE: "CC1CN(Cc2ncccn2)CC1c1nc2c(cnn2C2CCOCC2)c(=O)[nH]1 (stereo not shown) [A9]"
  Solid fraction, Value: 0.85
- MOLECULE: "CC1CN(Cc2ncccn2)CC1c1nc2c(cnn2C2CCOCC2)c(=O)[nH]1 (stereo not shown) [A3]"
  Solid fraction, Value: 0.857
- MOLECULE: "CC1CN(Cc2ncccn2)CC1c1nc2c(cnn2C2CCOCC2)c(=O)[nH]1 (stereo not shown) [A6/A7]"
  Solid fraction, Value: 0.85
- MOLECULE: "CC1CN(Cc2ncccn2)CC1c1nc2c(cnn2C2CCOCC2)c(=O)[nH]1 (stereo not shown) [A2]"
  Solid fraction, Value: 0.87
